System: IST-SL1;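 note: growth inhibition of human IST-SL1 cells, read out with a cell viability assay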
Assay: cells
Assay type: functional, cell-based, Homo sapiens
Details: Homo sapiens, IST-SL1
Description: SANGER: Inhibition of human IST-SL1 cell growth in a cell viability assay.
Examples of compounds with documented IC50 follow.

[
  {
    "Mol": "COc1ccc(-c2ccc3c(N4CCOC[C@@H]4C)nc(N4CCOC[C@@H]4C)nc3n2)cc1CO",
    "System under test": "IST-SL1",
    "IC50": "> 2000 nM"
  },
  {
    "Mol": "C=CCNC1=C2C[C@@H](C)C[C@H](OC)[C@H](O)[C@@H](C)/C=C(\\C)[C@H](OC(N)=O)[C@@H](OC)/C=C\\C=C(/C)C(=O)NC(=CC1=O)C2=O",
    "System under test": "IST-SL1",
    "IC50": "> 1000 nM"
  },
  {
    "Mol": "CN1CCN(CCOc2cc(OC3CCOCC3)c3c(Nc4c(Cl)ccc5c4OCO5)ncnc3c2)CC1",
    "System under test": "IST-SL1",
    "IC50": "> 2000 nM"
  },
  {
    "Mol": "O=c1cc(-c2cccc3c2Sc2ccccc2S3)oc(N2CCOCC2)c1",
    "System under test": "IST-SL1",
    "IC50": "> 10000 nM"
  }
]

----------
Tested on: UACC-812
Experiment: cells
Type: functional, cell-based
Settings: Homo sapiens
Description: SANGER: Inhibition of human UACC-812 cell growth in a cell viability assay.

[
  {
    "Compound": "C=C1C(=O)O[C@@H]2C3O[C@]3(C)CC/C=C(\\C)CC[C@@H]12 (some centres not stated)",
    "IC50": "> 5 µM"
  },
  {
    "Compound": "COC(=O)CNC(=O)C(=O)OC",
    "IC50": "3010 µM"
  },
  {
    "Compound": "CCc1nc(N)nc(N)c1-c1ccc(Cl)cc1 [PYRIMETHAMINE]",
    "IC50": "> 20 µM"
  },
  {
    "Compound": "CN(c1ncccc1CNc1nc(Nc2ccc3c(c2)CC(=O)N3)ncc1C(F)(F)F)S(C)(=O)=O [PF-00562271]",
    "IC50": "> 2.56 µM"
  },
  {
    "Compound": "CO[C@H]1C[C@@H]2CC[C@@H](C)[C@@](O)(O2)C(=O)C(=O)N2CCCC[C@H]2C(=O)O[C@H]([C@H](C)C[C@@H]2CC[C@@H](O)[C@H](OC)C2)CC(=O)[C@H](C)/C=C(\\C)[C@@H](O)[C@@H](OC)C(=O)[C@H](C)C[C@H](C)/C=C/C=C/C=C/1C [SIROLIMUS]",
    "IC50": "> 0.1 µM"
  },
  {
    "Compound": "CNC(=O)c1cc(Oc2ccc(NC(=O)Nc3ccc(Cl)c(C(F)(F)F)c3)cc2)ccn1 [SORAFENIB]",
    "IC50": "> 4 µM"
  },
  {
    "Compound": "C=CCc1cccc(/C=N/NC(=O)CN2CCN(Cc3ccccc3)CC2)c1O [PAC-1]",
    "IC50": "> 2.56 µM"
  }
]

----------
Tested on: SK-N-AS;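 note: growth inhibition of human SK-N-AS cells, measured with a cell viability assay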
Assay: cells
Assay type: functional, cell-based, Homo sapiens
Details: Homo sapiens, SK-N-AS
Description: SANGER: Inhibition of human SK-N-AS cell growth in a cell viability assay.
Catalogue of IC50 readings, one per entry.

[
  {
    "Mol": "Cc1ccc(Nc2nccc(N(C)c3ccc4c(C)n(C)nc4c3)n2)cc1S(N)(=O)=O",
    "System under test": "SK-N-AS",
    "IC50": "> 8 µM"
  },
  {
    "Mol": "O=C1N=C(NCc2cccs2)S/C1=C\\c1ccc2ncccc2c1",
    "System under test": "SK-N-AS",
    "IC50": "> 5 µM"
  },
  {
    "Mol": "Cc1cc([C@@H](C)Nc2ccccc2C(=O)O)c2nc(N3CCOCC3)cc(=O)n2c1",
    "System under test": "SK-N-AS",
    "IC50": "> 5.12 µM"
  },
  {
    "Mol": "Cn1cncc1[C@@](N)(c1ccc(Cl)cc1)c1ccc2c(c1)c(-c1cccc(Cl)c1)cc(=O)n2C",
    "System under test": "SK-N-AS",
    "IC50": "> 16 µM"
  },
  {
    "Mol": "CC(=O)O[C@@H]1[C@@H](OC(C)=O)[C@@H](O)[C@H](Oc2c(-c3ccc(O)cc3)oc3cc(O)cc(O)c3c2=O)O[C@H]1C",
    "System under test": "SK-N-AS",
    "IC50": "> 10 µM"
  }
]
